Here, each record is paired with measured polymerase ribozyme fitness (log ratio) data.
B1: TPR t1 (parent)
chain: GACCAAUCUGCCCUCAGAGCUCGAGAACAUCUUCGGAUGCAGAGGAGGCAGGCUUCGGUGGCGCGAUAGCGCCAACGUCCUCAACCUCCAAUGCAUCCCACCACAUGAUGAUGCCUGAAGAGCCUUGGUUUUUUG

variants of: B1; experiment: polymerase ribozyme fitness, log enrichment relative to wild type (log ratio); higher = more active; in vitro selection for triplet polymerase activity

Here's what some known entries look like.
[
  {
    "Mutation spec": "A2C G63U A84G U131G",
    "polymerase ribozyme fitness (log ratio)": -4.08
  },
  {
    "Mutation spec": "G60U C80G",
    "polymerase ribozyme fitness (log ratio)": -4.54
  },
  {
    "Mutation spec": "G120U",
    "polymerase ribozyme fitness (log ratio)": 0.195
  },
  {
    "Mutation spec": "C73G U130C",
    "polymerase ribozyme fitness (log ratio)": -0.482
  }
]

Query: Which polymerase ribozyme fitness (log ratio) reading was recorded for the variant U87C U126G ?
Result: -1.22

Query: Which polymerase ribozyme fitness (log ratio) reading was recorded for the variant C12G A18U G51U A74G C86A C124A ?
Result: -6.6
